Test system: 885724-159-R-J1-PDC KRAS PDC multicell spheroid viability;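 note: spheroids exposed to agents for 7 days before readout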
ASSAY_PROTOCOL: Anticancer human tumor 885724-159-R-J1-PDC patient-derived pancreatic adenocarcinoma cell line growth inhibition [KRAS2]
CONDITION_PARAMETERS: second compound 0.316 µM; first compound 0.1 µM; stronger effect = lower value
Sorting guide: entries reporting viability, T/C beneath 80% go in the true pile, the rest go in the false pile.

Examples with answers:
{"COMPOUND": "CC(=O)OC12COC1CC(O)C1(C)C(=O)C(O)C3=C(C)C(OC(=O)C(O)C(NC(=O)OC(C)(C)C)c4ccccc4)CC(O)(C(OC(=O)c4ccccc4)C21)C3(C)C (stereo not given) + C=CC(=O)N1CCN(c2nc(=O)n(-c3c(C)ccnc3C(C)C)c3nc(-c4c(O)cccc4F)c(F)cc23)C(C)C1", "ASSIGNED_CLASS": "false"}
{"COMPOUND": "COC(=O)c1ccc2c(C(=Nc3ccc(N(C)C(=O)CN4CCN(C)CC4)cc3)c3ccccc3)c(O)[nH]c2c1 + CC1OCC2(CCN(c3cnc(Sc4ccnc(N)c4Cl)c(N)n3)CC2)C1N", "ASSIGNED_CLASS": "false"}
{"COMPOUND": "O=C(c1cc(Cc2n[nH]c(=O)c3ccccc23)ccc1F)N1CCN(C(=O)C2CC2)CC1 + C=CC(=O)N1CCN(c2nc(OCC3CCCN3C)nc3c2CCN(c2cccc4cccc(C)c24)C3)CC1CC#N", "ASSIGNED_CLASS": "false"}
{"COMPOUND": "CCNC(=O)CC1N=C(c2ccc(Cl)cc2)c2cc(OC)ccc2-n2c(C)nnc21 (stereo not given) + COc1cc2nc(C)nc(NC(C)c3cc(N)cc(C(F)(F)F)c3)c2cc1OC1CCOC1", "ASSIGNED_CLASS": "false"}
{"COMPOUND": "CC(C)n1nc(-c2ccc3oc(N)nc3c2)c2c(N)ncnc21 + CC1OCC2(CCN(c3cnc(Sc4ccnc(N)c4Cl)c(N)n3)CC2)C1N", "ASSIGNED_CLASS": "true"}

viability, T/C strictly < 80% for this compound? CC(C)n1nc(-c2ccc3oc(N)nc3c2)c2c(N)ncnc21 + C=CC(=O)N1CCN(c2nc(=O)n(-c3c(C)ccnc3C(C)C)c3nc(-c4c(O)cccc4F)c(F)cc23)C(C)C1
true

viability, T/C strictly < 80% for this compound? COc1cc2nccc(Oc3ccc(NC(=O)C4(C(=O)Nc5ccc(F)cc5)CC4)cc3)c2cc1OC + C=CC(=O)N1CCN(c2nc(OCC3CCCN3C)nc3c2CCN(c2cccc4cccc(C)c24)C3)CC1CC#N
false

viability, T/C strictly < 80% for this compound? CC1(C)CCC(CN2CCN(c3ccc(C(=O)NS(=O)(=O)c4ccc(NCC5CCOCC5)c([N+](=O)[O-])c4)c(Oc4cnc5[nH]ccc5c4)c3)CC2)=C(c2ccc(Cl)cc2)C1 + COc1cc2nc(C)nc(NC(C)c3cc(N)cc(C(F)(F)F)c3)c2cc1OC1CCOC1
false

All figures here come from PubChem BioAssay AID1963861.
